The reported measurements were obtained from patent US9399635B2.

Examples of compounds with documented melting point follow.

Examples with answers:
Please look up its melting point: CN1CCCN(c2ccc(/C=C/c3cc(/C=C/c4ccc5cc[nH]c5c4)[nH]n3)c(Br)c2)CC1 [Example 72]
132 to 136 °C

Please look up its melting point: COc1ccc2[nH]cc(/C=C/c3cc(/C=C/c4ccc(OCc5ccccn5)cc4OC)n[nH]3)c2c1 [Example 100]
189 to 195 °C

Please look up its melting point: COc1cc(OCCN(C)C)ccc1/C=C/c1cc(/C=C/c2ccc3cc[nH]c3c2)[nH]n1 [Example 76]
109 to 112 °C

Please look up its melting point: COc1cc(OCc2ccccn2)ccc1/C=C/c1cc(/C=C/c2cccc3[nH]ccc23)[nH]n1 [Example 39]
108 to 113 °C

Now consider a different compound.
Please look up its melting point: COc1cc(OCc2ccccn2)ccc1/C=C/c1cc(/C=C/c2ccc3[nH]ccc3c2)[nH]n1 [Example 40]
98 to 104 °C
